Dear all, I have gathered published IC50 values for UniProt P23458; the list follows.

Some compounds with recorded IC50:
{"compound": "Cc1cnc(NC(=O)N2CCC3(CCC(N(C)c4ncnc5[nH]ccc45)CC3)CC2)cn1", "measured.on": "UniProt P23458", "IC50": "1000 to 10000 nM"}
{"compound": "CN1CCN(Cc2ccc(-n3cc(-c4nc(NC5CCN(S(C)(=O)=O)CC5)ncc4C#N)cn3)c(Cl)c2)CC1", "measured.on": "UniProt P23458", "IC50": "≥ 10000 nM"}
{"compound": "N#CCC1(n2cc(-c3ncnc4[nH]ccc34)cn2)CN(C2CCN(C(=O)c3cccc(F)c3)CC2)C1", "measured.on": "UniProt P23458", "IC50": "≤ 5 nM"}
{"compound": "N#CCC1(n2ccc(-c3ncnc4[nH]ccc34)c2)CN(C2CCN(C(=O)c3cccc(F)c3F)CC2)C1", "measured.on": "UniProt P23458", "IC50": "≤ 5 nM"}
{"compound": "COc1ccc(CNC2(CC#N)CN(c3nc(Nc4cc(C)ns4)ncc3C)C2)cc1", "measured.on": "UniProt P23458", "IC50": "< 50 nM"}

Query :: Give reported IC50 value for Cc1cc(Nc2ncc(C)c(N3CC(CC#N)(NC(=O)c4ccncc4)C3)n2)sn1
Result :: < 50 nM

Query :: Give reported IC50 value for CC(C)(O)Cc1nnc2cc(Nc3ncc(Cl)c(NC4CCN(c5ccc(C#N)cn5)CC4)n3)ccn12
Result :: 0.7 nM

Query :: Give reported IC50 value for C=CCC(=O)Nc1cccc(-c2cnc3ccccc3n2)c1
Result :: > 10000 nM

Query :: Give reported IC50 value for COCCC(C1CCCC1)n1cc(-c2nc(-c3cnn(C)c3)cc3nccn23)cn1 (centres unmarked)
Result :: > 1000 nM

Query :: Give reported IC50 value for N#CCC1(n2cc(-c3c(C#N)cnc4[nH]ccc34)cn2)CN(C2CCN(C(=O)c3cc(C(F)(F)F)ncc3F)CC2)C1
Result :: 5 to 20 nM

Query :: Give reported IC50 value for Oc1cc(CC(F)(F)F)c(-c2nc(NCC3CC3)c3cn[nH]c3n2)cc1F
Result :: 33.9 nM
